test: Induction of nitric oxide release in potassium phosphate buffer at pH 7.4 at 0.1 mM after 180 mins by Griess assay; type: physicochemical; settings: pH 7.4, 3 h, 100 µM
Give measured Activity for each item. Keep answers brief.
One number for each entry, in µM.

Worked cases, answers included:
INSERT INTO assay_data (molecule, measured) VALUES
  ('CCCCC(OC(=O)CN1CCN(CCCCCCOc2ccc(-c3cc(=S)ss3)cc2)CC1)c1ccccc1C(=O)Oc1ccc(/C=C/C(=O)OCCCCO[N+](=O)[O-])cc1OC (racemic)', 5.48),
  ('CCCCC(OC(=O)CN1CCN(CCCCOc2ccc(-c3cc(=S)ss3)cc2)CC1)c1ccccc1C(=O)Oc1ccc(/C=C/C(=O)OCCCCO[N+](=O)[O-])cc1OC (racemic)', 8.34),
  ('CCCCC(OC(=O)CN1CCN(CCCCOc2ccc(-c3cc(=S)ss3)cc2)CC1)c1ccccc1C(=O)Oc1ccc(/C=C/C(=O)OCCCCCCO[N+](=O)[O-])cc1OC (racemic)', 5.31),
  ('CCCCC(OC(=O)CN1CCN(CCCCCCOc2ccc(-c3cc(=S)ss3)cc2)CC1)c1ccccc1C(=O)Oc1ccc(/C=C/C(=O)OCCO[N+](=O)[O-])cc1OC (racemic)', 7.47),
  ('CCCCC(OC(=O)CN1CCN(CCCOc2ccc(-c3cc(=S)ss3)cc2)CC1)c1ccccc1C(=O)Oc1ccc(/C=C/C(=O)OCCCCO[N+](=O)[O-])cc1OC (racemic)', 3.23),
  ('CCCCC(OC(=O)CN1CCN(CCCCCCOc2ccc(-c3cc(=S)ss3)cc2)CC1)c1ccccc1C(=O)Oc1ccc(/C=C/C(=O)OCCCCCCO[N+](=O)[O-])cc1OC (racemic)', 10.14);

Dear colleague, could you please provide Activity for the molecules listed below?
1. CCCCC(OC(=O)CN1CCN(CCCCCOc2ccc(-c3cc(=S)ss3)cc2)CC1)c1ccccc1C(=O)Oc1ccc(/C=C/C(=O)OCCO[N+](=O)[O-])cc1OC (racemic)
2. CCCCC(OC(=O)CN1CCN(CCOc2ccc(-c3cc(=S)ss3)cc2)CC1)c1ccccc1C(=O)Oc1ccc(/C=C/C(=O)OCCCCCCO[N+](=O)[O-])cc1OC (racemic)

Output:
[10.3, 9.29]

---

assay: Induction of nitric oxide release in potassium phosphate buffer at pH 7.4 at 0.1 mM after 30 mins by Griess assay; format: physicochemical; settings: pH 7.4, 0.5 h, 100 µM
measured.property: Activity (µM)
Answers are plain numbers, in µM.

INSERT INTO results (compound, measured_property, measured) VALUES
  ('CCCCC(OC(=O)CN1CCN(CCCCCCOc2ccc(-c3cc(=S)ss3)cc2)CC1)c1ccccc1C(=O)Oc1ccc(/C=C/C(=O)OCCO[N+](=O)[O-])cc1OC (racemic)', 'Activity', 3.17);

Dear colleague, could you please provide Activity for the compounds listed below?
1. CCCCC(OC(=O)CN1CCN(CCCCOc2ccc(-c3cc(=S)ss3)cc2)CC1)c1ccccc1C(=O)Oc1ccc(/C=C/C(=O)OCCCCCCO[N+](=O)[O-])cc1OC (racemic)
2. CCCCC(OC(=O)CN1CCN(CCCCCOc2ccc(-c3cc(=S)ss3)cc2)CC1)c1ccccc1C(=O)Oc1ccc(/C=C/C(=O)OCCO[N+](=O)[O-])cc1OC (racemic)
3. CCCCC(OC(=O)CN1CCN(CCCCOc2ccc(-c3cc(=S)ss3)cc2)CC1)c1ccccc1C(=O)Oc1ccc(/C=C/C(=O)OCCCCO[N+](=O)[O-])cc1OC (racemic)
4. CCCCC(OC(=O)CN1CCN(CCCCCCOc2ccc(-c3cc(=S)ss3)cc2)CC1)c1ccccc1C(=O)Oc1ccc(/C=C/C(=O)OCCCCO[N+](=O)[O-])cc1OC (racemic)

Output:
[2.24, 5.48, 3.86, 2]
